FYI, the data here is from patent EP3212201B1.

# Assayed System: MARK2 (Homo sapiens)
# Sequence (Q7KZI7 whole entry, species assumed): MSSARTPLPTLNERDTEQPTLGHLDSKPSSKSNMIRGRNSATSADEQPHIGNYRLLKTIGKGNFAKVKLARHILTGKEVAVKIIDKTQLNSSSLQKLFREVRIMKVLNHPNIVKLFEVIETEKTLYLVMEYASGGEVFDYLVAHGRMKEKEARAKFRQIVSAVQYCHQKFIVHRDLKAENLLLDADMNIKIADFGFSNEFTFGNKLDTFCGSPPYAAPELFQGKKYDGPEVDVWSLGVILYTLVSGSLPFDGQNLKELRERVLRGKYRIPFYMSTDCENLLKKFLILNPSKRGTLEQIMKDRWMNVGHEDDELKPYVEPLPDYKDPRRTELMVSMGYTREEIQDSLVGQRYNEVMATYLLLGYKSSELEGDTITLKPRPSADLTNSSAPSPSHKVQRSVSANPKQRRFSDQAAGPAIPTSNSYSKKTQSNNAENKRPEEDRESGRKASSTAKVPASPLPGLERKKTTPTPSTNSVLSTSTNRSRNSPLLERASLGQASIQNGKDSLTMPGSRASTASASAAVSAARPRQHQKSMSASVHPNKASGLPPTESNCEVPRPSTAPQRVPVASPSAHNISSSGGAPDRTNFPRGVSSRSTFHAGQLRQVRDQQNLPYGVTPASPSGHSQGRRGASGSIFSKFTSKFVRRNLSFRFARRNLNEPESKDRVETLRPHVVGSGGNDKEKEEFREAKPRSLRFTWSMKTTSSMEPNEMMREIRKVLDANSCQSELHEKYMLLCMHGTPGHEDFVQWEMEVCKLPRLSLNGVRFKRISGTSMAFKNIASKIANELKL
# Protocol Text: FRET-based coupled-enzyme protein kinase inhibition assay
# Format: biochemical
# Condition Label: compound at 10 µM, 1% DMSO
# Description: A biochemical assay was then performed in order to measure the protein kinase inhibition. It employed a fluorescence-based coupled-enzyme format and was based on the differential sensitivity of phosphorylated and non-phosphorylated peptides to proteolytic cleavage. […] A significant benefit of this ratiometric method for quantitating reaction progress is the elimination of well-to-well variations in FRET-peptide concentration and signal intensities. […]
Recorded Endpoint: inhibition at 10 µM (%)

(1) Nc1ncnc2c1ncn2[C@@H]1O[C@H](COC(=O)N2CCN(Cc3ccccc3)CC2CO)[C@@H](O)[C@H]1O (some centres unmarked)
(2) Nc1ncnc2c1ncn2[C@@H]1O[C@H](COC(=O)N2CCN(CCc3ccccc3)CC2)[C@@H](O)[C@H]1O
## Input Between item 1 and item 2 , which reported inhibition at 10 µM is smaller? Indicate your choice by writing its label.
## Output 1

(I) Nc1ncnc2c1ncn2[C@@H]1O[C@H](COC(=O)NC[C@H](O)CO)[C@@H](O)[C@H]1O
(II) CN1CCN(CCNC(=O)OC[C@H]2O[C@@H](n3cnc4c(N)ncnc43)[C@H](O)[C@@H]2O)CC1
## Input Two entries are listed, I and II . Which one carries the higher inhibition at 10 µM? Indicate your choice by writing its label.
## Output I
